System: Huh-7 cell line
Assay: Resazurin cell growth inhibition assay, Huh-7
Assay type: cell-based, human
Conditions: Homo sapiens, Huh-7, 48 h, resazurin assay, 48 h, M ± SEM of three independent experiments; read-out: Cytotoxic activity IC50, Huh-7 cell line
Source text: All compounds 2a-e, 3a-d, and PPAD’s 4a-t were subjected to a screening system for evaluation of their anticancer activity against cell line of human cancer, namely liver (HepG2 and Huh-7) cancer and normal fibroblast cells obtained from the German Cancer Research Center (DKFZ), following the Resazurin Cell Growth Inhibition Assay[45] in comparison to the standard treatment using DOX (see Supplementary). Cell culture and treatment All reagents were handled in a sterile fume hood. […]
Property label: IC50

Solved entries (count: 4):
INSERT INTO results (compound, property_label, assay_value) VALUES
  ('CN(C)c1ccc(/C=C/C(=O)c2c3ccccc3cc3ccccc23)cc1', 'IC50', '21 µg/mL'),
  ('COc1cc(C2CC(c3c4ccccc4cc4ccccc34)=NN2c2nc(-c3c[nH]c4ccccc34)c(C#N)c(=O)[nH]2)cc(OC)c1OC (centres unmarked)', 'IC50', '13.5 µg/mL'),
  ('CN(C)c1ccc(C2CC(c3c4ccccc4cc4ccccc34)=NN2c2nc(-c3c[nH]c4ccccc34)c(C#N)c(=O)[nH]2)cc1 (centres unmarked)', 'IC50', '13.2 µg/mL'),
  ('COc1cccc2c1C(=O)c1c(O)c3c(c(O)c1C2=O)C[C@@](O)(C(=O)CO)C[C@@H]3O[C@H]1C[C@H](N)[C@H](O)[C@H](C)O1 [Doxorubicin, reference compound]', 'IC50', '5.43 µg/mL');

Now consider the entry below.
Task: Hello, I am looking for reported IC50 with Huh-7 cell line for CN(C)c1ccc(C2CC(c3c4ccccc4cc4ccccc34)=NN2c2nc(-c3ccc(F)cc3)c(C#N)c(=O)[nH]2)cc1 (centres unmarked) . Could you help?
Output: 8.45 µg/mL

###

# melting point per entry

These recorded examples may help you get a feel for the data.
INSERT INTO results (compound, property_label, assay_value) VALUES
  ('COc1cc(C2CC(c3c4ccccc4cc4ccccc34)=NN2c2nc(-c3ccc(N(C)C)cc3)c(C#N)c(=O)[nH]2)cc(OC)c1OC (stereo not drawn)', 'melting point', '160 to 162 °C'),
  ('CN(C)c1ccc(C2CC(c3c4ccccc4cc4ccccc34)=NN2c2nc(-c3c[nH]c4ccccc34)c(C#N)c(=O)[nH]2)cc1 (stereo not drawn)', 'melting point', '240 to 242 °C'),
  ('N#Cc1c(-c2c[nH]c3ccccc23)nc(N2N=C(c3c4ccccc4cc4ccccc34)CC2c2c[nH]c3ccccc23)[nH]c1=O (stereo not drawn)', 'melting point', '220 to 222 °C'),
  ('CN(C)c1ccc(-c2nc(N3N=C(c4c5ccccc5cc5ccccc45)CC3c3ccc(N(C)C)cc3)[nH]c(=O)c2C#N)cc1 (stereo not drawn)', 'melting point', '174 to 175 °C'),
  ('N#Cc1c(-c2ccccc2)nc(N2N=C(c3c4ccccc4cc4ccccc34)CC2c2c[nH]c3ccccc23)[nH]c1=O (stereo not drawn)', 'melting point', '135 to 137 °C');

Now for another entry.
Task: Entry COc1cc(C2CC(c3c4ccccc4cc4ccccc34)=NN2c2nc(-c3c[nH]c4ccccc34)c(C#N)c(=O)[nH]2)cc(OC)c1OC (stereo not drawn) has what melting point?
Output: 228 to 230 °C
